- measured-target: DNA gyrase (Staphylococcus aureus, UniProt P0A0K8+P20831)
- Sequence (P0A0K8 whole entry): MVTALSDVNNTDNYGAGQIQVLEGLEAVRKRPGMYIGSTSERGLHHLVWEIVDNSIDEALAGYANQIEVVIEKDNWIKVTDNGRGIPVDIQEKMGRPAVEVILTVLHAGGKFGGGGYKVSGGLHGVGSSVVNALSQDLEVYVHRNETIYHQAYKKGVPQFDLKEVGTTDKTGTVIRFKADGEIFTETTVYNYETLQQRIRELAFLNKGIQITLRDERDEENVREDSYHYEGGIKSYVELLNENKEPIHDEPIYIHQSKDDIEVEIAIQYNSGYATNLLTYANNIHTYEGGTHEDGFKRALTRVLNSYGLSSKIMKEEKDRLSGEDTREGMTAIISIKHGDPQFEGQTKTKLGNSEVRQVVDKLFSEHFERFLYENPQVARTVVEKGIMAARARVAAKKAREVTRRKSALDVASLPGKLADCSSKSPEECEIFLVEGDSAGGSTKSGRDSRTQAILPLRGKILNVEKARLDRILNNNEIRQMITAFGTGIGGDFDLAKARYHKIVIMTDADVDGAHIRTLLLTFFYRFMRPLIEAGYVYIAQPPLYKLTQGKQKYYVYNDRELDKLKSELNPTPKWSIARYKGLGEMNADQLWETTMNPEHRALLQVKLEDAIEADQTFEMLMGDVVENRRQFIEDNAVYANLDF
- Sequence (P20831 whole entry): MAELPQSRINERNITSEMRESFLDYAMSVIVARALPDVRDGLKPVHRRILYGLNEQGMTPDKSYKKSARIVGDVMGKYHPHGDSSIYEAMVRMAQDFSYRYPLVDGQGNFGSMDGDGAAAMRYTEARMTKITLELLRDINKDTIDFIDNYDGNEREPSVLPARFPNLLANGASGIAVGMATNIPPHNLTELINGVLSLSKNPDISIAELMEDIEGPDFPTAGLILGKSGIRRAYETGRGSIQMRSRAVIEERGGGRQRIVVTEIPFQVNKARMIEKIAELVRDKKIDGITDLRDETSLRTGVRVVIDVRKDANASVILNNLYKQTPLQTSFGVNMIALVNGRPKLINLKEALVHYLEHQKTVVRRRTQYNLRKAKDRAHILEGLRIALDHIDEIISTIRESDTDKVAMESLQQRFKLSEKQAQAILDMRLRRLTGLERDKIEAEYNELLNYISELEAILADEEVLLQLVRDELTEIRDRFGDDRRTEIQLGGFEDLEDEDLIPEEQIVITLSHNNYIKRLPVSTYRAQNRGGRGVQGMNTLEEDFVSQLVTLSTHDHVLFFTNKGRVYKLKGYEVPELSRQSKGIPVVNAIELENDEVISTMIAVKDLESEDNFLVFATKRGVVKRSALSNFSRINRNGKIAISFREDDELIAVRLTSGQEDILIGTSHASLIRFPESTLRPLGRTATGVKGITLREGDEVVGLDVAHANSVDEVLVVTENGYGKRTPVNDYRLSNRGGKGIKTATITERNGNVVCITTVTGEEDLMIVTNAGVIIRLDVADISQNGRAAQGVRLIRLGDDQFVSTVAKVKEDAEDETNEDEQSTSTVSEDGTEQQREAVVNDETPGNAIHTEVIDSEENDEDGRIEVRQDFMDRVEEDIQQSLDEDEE
- assay-procedure: Inhibition of Staphylococcus aureus DNA gyrase assessed as supercoiling of relaxed pNO1 plasmid after 30 mins by SybrGOLD staining based fluorescence assay
measure-name: IC50 (µM)
Report the figure in µM without appending any unit label.

Entry O=C(O)C(=O)Nc1ccc(NC(=O)c2cc(Br)c(Br)[nH]2)cc1 ; IC50 = 51

---

- Tested on: Escherichia coli
- assay-procedure: Inhibition of Escherichia coli DNA gyrase assessed as supercoiling of relaxed pNO1 plasmid by measuring residual activity at 100 uM after 30 mins by SybrGOLD staining based fluorescence assay
measure-name: Activity (%)
Report the figure in % without appending any unit label.

Below are worked cases with known answers.
compound | measured-target | u | recorded-number
O=C(Nc1ccc(N2CCC(C(=O)O)CC2=O)cc1)c1cc(Br)c(Br)[nH]1 (stereo not drawn) | Escherichia coli | % | 50
CCOC(=O)C(=O)Nc1ccc(NC(=O)c2cc(Br)c(Br)[nH]2)cc1 | Escherichia coli | % | 68
CCOC(=O)C1CCN(c2ccc(NC(=O)c3cc(Br)c(Br)[nH]3)cc2)C(=O)C1 (stereo not drawn) | Escherichia coli | % | 142
COC(=O)CC(=O)Nc1cccc(NC(=O)c2cc(Br)c(Br)[nH]2)c1 | Escherichia coli | % | 98
O=C(Nc1ccc(N2CCOC2=O)cc1)c1cc2ccccc2[nH]1 | Escherichia coli | % | 110
CCOC(=O)C1CCN(c2ccc(NC(=O)c3cc4ccccc4[nH]3)cc2)C(=O)C1 (stereo not drawn) | Escherichia coli | % | 131
COC(=O)[C@H]1CCCN(c2ccc(NC(=O)c3cc(Br)c(Br)[nH]3)cc2)C1 | Escherichia coli | % | 89
O=C(O)CC(=O)Nc1cccc(NC(=O)c2cc(Br)c(Br)[nH]2)c1 | Escherichia coli | % | 65
COC(=O)CCC(=O)Nc1ccc(NC(=O)c2cc(Br)c(Br)[nH]2)cc1 | Escherichia coli | % | 65
O=C(Nc1ccc(N2CCC(C(=O)O)CC2)cc1)c1cc2ccccc2[nH]1 | Escherichia coli | % | 143

Entry O=C(Nc1ccc(N2CCC[C@H](C(=O)O)C2)cc1)c1cc2ccccc2[nH]1 ; Activity = 76

Entry CCOC(=O)C1CCN(c2ccc(NC(=O)c3cc(Br)c(Br)[nH]3)cc2)CC1 ; Activity = 94

Entry COC(=O)[C@H]1CCCN(c2ccc(NC(=O)c3cc4ccccc4[nH]3)cc2)C1 ; Activity = 132

Entry O=C(Nc1ccc(N2CCOC2=O)cc1)c1cc(Br)c(Br)[nH]1 ; Activity = 104

Entry CCOC(=O)C(=O)Nc1ccc(NC(=O)c2cc3ccccc3[nH]2)cc1 ; Activity = 103

Entry CCOC(=O)C1CCN(c2ccc(NC(=O)c3cc4ccccc4[nH]3)cc2)CC1 ; Activity = 95

Entry O=C(Nc1ccc(N2CCC(C(=O)O)CC2)cc1)c1cc(Br)c(Br)[nH]1 ; Activity = 88

Entry O=C(Nc1ccc(N2CCC(C(=O)O)CC2=O)cc1)c1cc2ccccc2[nH]1 (stereo not drawn) ; Activity = 90

---

- assay-procedure: Inhibition of Escherichia coli topoisomerase 4 assessed as supercoiling of relaxed pBR322 plasmid after 45 mins by ethidium bromide staining based agarose gel electrophoresis
measure-name: pIC50
The quantity pIC50 is defined as the negative base-10 logarithm of the molar concentration.

Entry CO[C@@H]1[C@@H](OC(N)=O)[C@@H](O)[C@H](Oc2ccc3c(O)c(NC(=O)c4ccc(O)c(CC=C(C)C)c4)c(=O)oc3c2C)OC1(C)C [NOVOBIOCIN] ; pIC50 = 5.00
